Molecular target: T1, human 5T4-His protein (human, UniProt Q13641 32-355)
T1 construct: also called recombinant 5T4 protein (human 5T4-his tag); human 5T4 protein; not shown: His tag
T1 sequence (looked up): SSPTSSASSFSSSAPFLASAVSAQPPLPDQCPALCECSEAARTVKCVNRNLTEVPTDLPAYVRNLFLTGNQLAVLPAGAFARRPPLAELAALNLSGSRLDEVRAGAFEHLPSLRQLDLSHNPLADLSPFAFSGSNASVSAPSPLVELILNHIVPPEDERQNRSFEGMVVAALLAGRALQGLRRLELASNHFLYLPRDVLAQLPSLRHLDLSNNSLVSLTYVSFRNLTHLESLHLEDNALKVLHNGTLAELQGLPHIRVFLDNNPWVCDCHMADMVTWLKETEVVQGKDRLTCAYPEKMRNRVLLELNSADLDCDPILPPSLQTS
Experiment: SPR Biacore, Protein A capture
MEASURED_ENDPOINT: pKd
Numbers only, as −log10 of the molar value.

95F10 chimeric antibody (antibody, V domains shown, chimeric mAb) VH: QVQLQQSGPEVVNPGASVKISCKASGYTFTDYYMNWVKQSRGKSLEWIGDINPNNGGTNYNQKFKDKATLTVDKSSNTAYMELRSLTSENSAVYYCAKEGPPGAMDYWGQGTSVTVSS VL: NIVMTQTPKFLLVSAGDRVTITCKASQSVSNHVAWYQQKPGQSPKLLIYYVSNRYIGVPDRFTGSGYGTDFTFTISTVQAEDLAVYFCQQVYSSPFTFGGGTRLEMK : 9.47

// for each binder in input: emit pKd
1. 389G2 chimeric antibody (antibody, V domains shown, chimeric mAb) VH: QVQLQQPGTELVKPGASVKLSCKASGYTFTSYWMHWVKQRPEQGLEWIGNINPSNGNTNYNERFKSKATLTVDKSSSTAYMQLSSLTSEDSTVYYCARGGWDFDYWGQGTTLTVSS VL: QVVLTQSPAIMSASPGEKVTMTCSASSSVRYIHWYQQRSGTSPKRWIYDTSKLTSGVPVRFSGSGSGTSFSLTISSMEAEDAATYYCQQWTSKPPWTFGGGTKLEIK
2. 353H11 chimeric antibody (antibody, V domains shown, chimeric mAb) VH: QVQLQQPGTELVKPGASVKLSCKASDYTFTSYWMHWVKQRPEQGLEWIGNINPSNGNTNYNEKFKNKATLTVDKSSSTAYMQLSSLTFEDSAVYYCARGGWDFDYWGQGTTLTVSS VL: QVVLTQSPAIMSASPGEKVTMTCSASSSVRYMHWYQQRSGTSPKRWIYDTSKLTSGVPARFSGSGSGTSYSLTISSMEAEDAATYYCQLWTSKPPWTFGGGTKLEIR
3. 393E9 chimeric antibody (antibody, V domains shown, chimeric mAb) VH: EVKLVESGGGLVQPGGSLSLSCAASGFTFTDYYMSWVRQPPGKALEWLGFIRNKGNGYTTENSASVKGRFTISRDNSQSILYLQMNALRAEDSATYYCARYRGNPHYAMDYWGQGTSVTVSS VL: DIVLTQFPASLAVSLGQRATISCRASESVEFYGTSFLQWYQQKPGQPPKLLIYGASNVESGVPARFSGSGSGTDFSLSIHPVEEDDIAMYFCQQSRKVPSTFGGGTKLEIK

[9.31, 9.62, 10.25]

Below are some binders; for each one, tell me its pKd.
1. 159D5 chimeric antibody (antibody, V domains shown, chimeric mAb) VH: DVQLVESGGGLVQPGGSRKLSCTASGFTFSNFGMHWVRQAPETGLEWVAYISSGSSTFYYADSVKGRFTISRDNPKNTLFLQMTSLRSEDTAMYFCARSPAYYRYGLDYWGQGTTLTVSS VL: DIVLTQSPASLAVSLGQRATISCRASQSVSSSTFSYMHWYQQKPGQPPKLLIKSSSNLESGVPARFSGSGSGTDFTLNIHPVEEEDTATYYCQHSWEIPYTFGGGTKLEIK
2. 109H7 chimeric antibody (antibody, V domains shown, chimeric mAb) VH: QVQLQQSGAELMKPGASVKLSCKATGYTFTGYWIEWVKQRPGQGLEWIGETLPGRGSTNYNEKFKGKATFTADTSSNIVYMQLSSLTIEDSAIYYCARGRRDFDYWGQGTTLTVSS VL: DIQMTQTTSSLSASLGDEVTISCSASQGINNYLNWYQQKPDGTVKLLIYYTSSLHSGVPSRFSGSGSGTDYSLTIINLEPEDIATYYCQQFSKLPFTFGSGTKLEIR

1. 9.69
2. 9.22
